Values were extracted from ChEMBL document CHEMBL2203026.

Biological target: Metabotropic glutamate receptor 3 (Rattus norvegicus)
Sequence (P31422 whole entry): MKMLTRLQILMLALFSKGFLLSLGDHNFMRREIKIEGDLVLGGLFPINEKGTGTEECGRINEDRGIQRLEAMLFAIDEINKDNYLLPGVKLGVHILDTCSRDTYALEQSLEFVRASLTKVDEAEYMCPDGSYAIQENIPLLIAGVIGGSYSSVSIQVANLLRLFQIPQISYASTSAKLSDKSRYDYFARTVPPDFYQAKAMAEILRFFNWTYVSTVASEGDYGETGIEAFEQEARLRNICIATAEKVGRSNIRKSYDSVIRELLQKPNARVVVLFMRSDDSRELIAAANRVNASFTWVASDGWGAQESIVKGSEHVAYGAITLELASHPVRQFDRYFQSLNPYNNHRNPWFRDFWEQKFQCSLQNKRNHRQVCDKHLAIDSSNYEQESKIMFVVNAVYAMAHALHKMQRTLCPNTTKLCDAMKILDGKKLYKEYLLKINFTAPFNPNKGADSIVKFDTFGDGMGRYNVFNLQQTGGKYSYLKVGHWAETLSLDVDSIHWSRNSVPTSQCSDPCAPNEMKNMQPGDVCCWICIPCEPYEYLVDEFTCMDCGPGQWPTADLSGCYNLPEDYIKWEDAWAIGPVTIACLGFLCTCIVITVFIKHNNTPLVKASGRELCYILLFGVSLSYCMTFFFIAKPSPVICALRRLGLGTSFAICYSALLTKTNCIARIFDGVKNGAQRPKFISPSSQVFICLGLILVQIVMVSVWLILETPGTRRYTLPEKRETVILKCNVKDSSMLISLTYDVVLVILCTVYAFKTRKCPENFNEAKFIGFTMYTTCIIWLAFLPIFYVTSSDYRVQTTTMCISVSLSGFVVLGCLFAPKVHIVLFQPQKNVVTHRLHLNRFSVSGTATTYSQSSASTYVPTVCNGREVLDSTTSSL
Test: Negative allosteric modulation of rat mGlu3 assessed as assessed as thallium flux through GIRK channels by cell-based assay
pIC50: −log10 of the molar value.
Parameter Measured: pIC50

Incoming: # input molecule: O=C(c1ccc(C#Cc2ccccc2)cc1)N1CCC(O)CC1 ; wanted: its pIC50
Outgoing: < 5.00

###

Target: Metabotropic glutamate receptor 3 (Homo sapiens)
Experiment: Negative allosteric modulation of mGlu3 by cell-based assay
Sequence (Q14832 whole entry): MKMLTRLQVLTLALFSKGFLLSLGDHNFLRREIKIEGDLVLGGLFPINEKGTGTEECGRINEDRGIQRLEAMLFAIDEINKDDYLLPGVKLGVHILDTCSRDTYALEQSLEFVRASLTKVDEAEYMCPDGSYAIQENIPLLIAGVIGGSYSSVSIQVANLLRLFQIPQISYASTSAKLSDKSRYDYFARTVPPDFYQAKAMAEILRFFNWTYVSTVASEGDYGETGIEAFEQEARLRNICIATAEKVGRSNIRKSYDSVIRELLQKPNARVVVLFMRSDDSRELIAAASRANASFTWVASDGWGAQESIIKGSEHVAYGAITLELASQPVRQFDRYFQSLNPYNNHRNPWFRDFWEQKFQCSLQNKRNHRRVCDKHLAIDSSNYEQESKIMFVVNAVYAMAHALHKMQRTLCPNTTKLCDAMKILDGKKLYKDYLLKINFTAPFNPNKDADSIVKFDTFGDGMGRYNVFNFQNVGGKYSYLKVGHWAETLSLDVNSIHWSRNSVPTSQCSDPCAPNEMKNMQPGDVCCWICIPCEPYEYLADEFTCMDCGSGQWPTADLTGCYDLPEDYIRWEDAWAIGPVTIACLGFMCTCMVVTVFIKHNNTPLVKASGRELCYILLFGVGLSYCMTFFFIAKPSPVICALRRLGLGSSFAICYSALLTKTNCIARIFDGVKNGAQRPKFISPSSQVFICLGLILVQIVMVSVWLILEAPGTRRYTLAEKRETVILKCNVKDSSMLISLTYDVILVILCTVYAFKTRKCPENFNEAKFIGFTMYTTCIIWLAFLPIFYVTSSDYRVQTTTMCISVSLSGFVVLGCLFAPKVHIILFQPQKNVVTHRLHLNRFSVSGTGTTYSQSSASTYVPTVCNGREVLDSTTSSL
Parameter Measured: IC50 (µM)
Answers are plain numbers, in µM.

Incoming: Quick check: IC50 of Cc1cc(-c2cccc(C3=Nc4cc(C)c(C(F)(F)F)cc4NC(=O)C3)c2)cc(C)n1 ?
Outgoing: 0.27

###

Experiment: Fraction unbound in rat plasma
Assay type: ADME, cell-free
Parameter Measured: fraction unbound
Answers are plain numbers.

Incoming: Look up fraction unbound: COc1ccc(C#Cc2ccc(C(=O)N3CCC[C@@H](CO)C3)cc2)cc1
Outgoing: 0.01

###

Test: Clearance in rat at 1 mg/kg, iv
Assay type: ADME, organism-based
Design: dose 1 mg/kg, route intravenous
Conditions: in vivo
Parameter Measured: clearance (mL/min/kg)
Give bare numbers, in mL/min/kg.

Incoming: Consider the molecule COc1ccc(C#Cc2ccc(C(=O)N3CCC[C@@H](CO)C3)cc2)cc1 and give its measured clearance.
Outgoing: 33

###

Biological target: Metabotropic glutamate receptor 3 (Homo sapiens)
Assay: Negative allosteric modulation of mGlu3 assessed as thallium flux through GIRK channels by cell-based assay
Conditions: read-out: IC50
Parameter Measured: pIC50
Numbers only, as −log10 of the molar value.

Consider the reported pIC50 for these compounds:
Compound	pIC50
COc1ccc(C#Cc2ccc(C(=O)N3CCC(O)CC3)cc2)cc1	5.42
COc1ccc(C#Cc2ccc(C(=O)N3CCC[C@@H](CO)C3)cc2)cc1	5.82

Hello, I would appreciate it if you could give pIC50 for each entry below.
1. COc1ccc(C#Cc2ccc(C(=O)N3CCC[C@H](C(=O)O)C3)cc2)cc1
2. COc1ccc(C#Cc2ccc(C(=O)N3CCCC(CO)C3)cc2)cc1 (racemic)
3. Clc1ccc(CN[C@H]2CCN(c3ncc(Br)cn3)C2)c(Cl)c1
4. COc1ccc(C#Cc2ccc(C(=O)N3CCCC(O)C3)cc2)cc1 (stereo not given)

Outgoing:
1. 5.24
2. 5.68
3. 5.38
4. 5.60

Incoming: # query: pIC50 of entry COc1ccc(C#Cc2ccc(C(=O)N3CCC(C)(O)CC3)cc2)cc1
Outgoing: 5.30

###

Target: Metabotropic glutamate receptor 3 (Homo sapiens)
Experiment: Negative allosteric modulation of mGlu3 assessed as inhibition of glutamate-induced thallium flux through GIRK channels by cell-based assay
Set-up: concentration or dose not given beside the values
Details: concentration not given here
Sequence (Q14832 23-879 limits assumed): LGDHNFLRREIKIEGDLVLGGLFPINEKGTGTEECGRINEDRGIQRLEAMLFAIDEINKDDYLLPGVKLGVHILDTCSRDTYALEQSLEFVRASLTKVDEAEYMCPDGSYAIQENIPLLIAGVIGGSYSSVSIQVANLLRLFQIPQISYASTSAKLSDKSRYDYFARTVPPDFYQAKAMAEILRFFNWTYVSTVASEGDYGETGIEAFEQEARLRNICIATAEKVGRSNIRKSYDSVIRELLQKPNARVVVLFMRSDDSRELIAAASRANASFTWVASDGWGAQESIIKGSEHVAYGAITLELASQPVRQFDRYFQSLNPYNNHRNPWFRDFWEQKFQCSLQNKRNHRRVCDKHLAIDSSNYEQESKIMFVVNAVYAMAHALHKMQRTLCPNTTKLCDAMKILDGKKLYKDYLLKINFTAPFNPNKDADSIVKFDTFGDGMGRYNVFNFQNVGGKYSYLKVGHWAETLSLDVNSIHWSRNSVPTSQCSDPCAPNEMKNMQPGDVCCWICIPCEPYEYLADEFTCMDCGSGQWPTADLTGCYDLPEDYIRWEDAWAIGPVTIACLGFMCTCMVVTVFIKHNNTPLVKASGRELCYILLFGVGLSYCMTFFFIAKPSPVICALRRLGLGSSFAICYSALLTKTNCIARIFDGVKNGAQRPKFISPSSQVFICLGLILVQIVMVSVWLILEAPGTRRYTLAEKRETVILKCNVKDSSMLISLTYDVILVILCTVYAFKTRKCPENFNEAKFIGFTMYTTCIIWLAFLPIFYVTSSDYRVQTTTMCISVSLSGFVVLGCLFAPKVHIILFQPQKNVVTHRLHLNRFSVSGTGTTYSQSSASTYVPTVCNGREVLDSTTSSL
Parameter Measured: inhibition (%)
Numbers only, in %.

COc1ccc(C#Cc2ccc(C(=O)N3CCC[C@H](C(=O)O)C3)cc2)cc1 2.2
COc1ccc(C#Cc2ccc(C(=O)N3CCC(C)(O)CC3)cc2)cc1 4.4
COc1ccc(C#Cc2ccc(C(=O)N3CCN(C(C)C)CC3)cc2)cc1 7.6
COc1ccc(C#Cc2ccc(C(=O)N3CCC[C@H](CO)C3)cc2)cc1 -1.7

Incoming: Would you mind telling me what inhibition value was observed for CCN1CCC[C@H]1CC(=O)c1ccc(C#Cc2ccc(OC)cc2)cc1 ?
Outgoing: 9.6
